Hi there, I'd appreciate the recorded IC50 for every entry that follows.
assayTarget: SpsB (Staphylococcus aureus)
Construct: using a bacterial membrane fraction as a source of SpsB; from tissue
Sequence (P0A070 whole entry): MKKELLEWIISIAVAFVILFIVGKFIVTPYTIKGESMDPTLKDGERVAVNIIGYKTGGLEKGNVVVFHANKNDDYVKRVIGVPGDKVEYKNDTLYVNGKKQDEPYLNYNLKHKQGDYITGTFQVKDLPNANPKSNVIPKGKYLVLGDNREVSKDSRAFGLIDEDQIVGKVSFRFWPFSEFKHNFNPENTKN
protocolDetails: Inhibition of SpsB enzyme activity (fluorescence-based assay, bacterial membrane fraction)
Type: biochemical

Any idea what IC50 was measured for CC(C)CCCC(C)CCc1ccc(-c2ccc(C(=O)NCCC(=O)N[C@@H](CCCCN)C(=O)N(C)[C@@H]3C(=O)N[C@@H](C)C(=O)N[C@H](C(=O)O)Cc4ccc(O)c(c4)-c4cc3ccc4O)cc2)cc1 (some centres unmarked) ?
< 0.01 µM

Please answer likewise for `COc1ccc2cc1-c1cc(ccc1OC)[C@H](N(C)C(=O)[C@H](CCCCN)NC(=O)CCNC(=O)c1ccc(-c3ccc(CCCCCCCCC(C)(C)O)cc3)cc1)C(=O)N[C@@H](C)C(=O)N[C@H](C(=O)O)C2`
< 0.01 µM

* * *

Tested on: MB 5393 (COL), a methicillin-resistant S. aureus strain
protocolDetails: Determination of minimum and synergistic inhibitory concentration
Type: cell-based
measurementSetup: MRSA COL, presence of imipenem (4 μg/mL), 22 hours
metricName: SIC

CCCCCCCCCCc1ccc2cc(C(=O)NCCC(=O)N[C@@H](CCCCNC(C)=O)C(=O)N(C)[C@@H]3C(=O)N[C@@H](C)C(=O)N[C@H](C(=O)O)Cc4ccc(O)c(c4)-c4cc3ccc4O)ccc2c1 | G (G: SIC <0.0625)
CCCCCCCCCCc1ccc2cc(C(=O)NCCC(=O)N3CC[C@H]3C(=O)N(C)[C@@H]3C(=O)N[C@@H](C)C(=O)N[C@H](C(=O)O)Cc4ccc(O)c(c4)-c4cc3ccc4O)ccc2c1 | G (G: SIC <0.0625)
CCCCCCCc1ccc(-c2ccc(C(=O)NCCC(=O)N[C@@H](CCCCN)C(=O)N(C)[C@@H]3C(=O)N[C@@H](C)C(=O)N[C@H](C(=O)O)Cc4ccc(O)c(c4)-c4cc3ccc4O)cc2)cc1 | G (G: SIC <0.0625)
CCCCCCCCCc1ccc(-c2ccc(C(=O)NCCC(=O)N[C@@H](CCCN)C(=O)N(C)C3C(=O)N[C@@H](C)C(=O)N[C@H](C(=O)O)Cc4ccc(O)c(c4)-c4cc3ccc4O)cc2)cc1 (some centres unmarked) | G (G: SIC <0.0625)
CCCCCCCCCCc1ccc2cc(C(=O)NCCC(=O)N3CCCC3C(=O)N(C)[C@@H]3C(=O)N[C@@H](C)C(=O)N[C@H](C(=O)O)Cc4ccc(O)c(c4)-c4cc3ccc4O)ccc2c1 (stereo in doubt) | G (G: SIC <0.0625)

Now for a further compound.
Please give the measured SIC for this compound: `CCCCCCCCCc1ccc(-c2ccc(C(=O)NCCC(=O)N[C@@H](CCCCN)C(=O)N(C)[C@@H]3C(=O)N[C@@H](C)C(=O)N[C@H](C(=O)O)Cc4ccc(O)c(c4)-c4cc3ccc4O)cc2C)cc1`
G (G: SIC <0.0625)

All values here come from patent US20130244929A1.
